# Test target: T1, GST-WRNIP1 (Homo sapiens, UniProt Q96S55 1-665)
# T1 sequence: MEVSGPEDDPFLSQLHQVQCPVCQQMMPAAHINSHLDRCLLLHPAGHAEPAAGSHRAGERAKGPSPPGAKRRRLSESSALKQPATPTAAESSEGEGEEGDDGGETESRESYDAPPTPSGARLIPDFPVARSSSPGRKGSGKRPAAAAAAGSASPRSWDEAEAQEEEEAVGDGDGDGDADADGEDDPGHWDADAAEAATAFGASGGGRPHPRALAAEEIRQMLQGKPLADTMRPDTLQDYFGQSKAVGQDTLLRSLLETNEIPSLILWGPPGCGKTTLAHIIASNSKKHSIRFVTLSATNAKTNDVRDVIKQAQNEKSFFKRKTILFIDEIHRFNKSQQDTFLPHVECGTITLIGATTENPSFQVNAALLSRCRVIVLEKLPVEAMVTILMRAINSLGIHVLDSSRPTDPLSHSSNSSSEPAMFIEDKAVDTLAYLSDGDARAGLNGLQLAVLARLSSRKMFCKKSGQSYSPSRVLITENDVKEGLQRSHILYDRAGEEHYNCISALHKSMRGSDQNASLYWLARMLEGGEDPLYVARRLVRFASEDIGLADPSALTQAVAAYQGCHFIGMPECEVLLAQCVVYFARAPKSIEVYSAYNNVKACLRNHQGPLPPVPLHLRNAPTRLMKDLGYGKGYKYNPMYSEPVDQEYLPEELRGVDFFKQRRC
# Experimental protocol: fluorescence anisotropy; Hill n 0.95; Anisotropy: 10 nM DNA, 50 mM Tris-HCl pH 7.5, 90 mM KCl, 5 mM EDTA, with or without 1 mM ATP and 1.25 mM MgCl2, 25 C; EMSA: 50 nM DNA, 50 mM Tris-HCl pH 7.5, 150 mM KCl, 15 min 25 C, 6% native gel; DNA folded in 25 mM Tris-HCl pH 7.5, 50 mM KCl
# Test context: protein: recombinant; (GST fusion); label: 5' FITC; intramolecular G4 with 3' ssDNA tail
pKd: −log10 of the molar value.
Measured property: pKd

{"columns": ["Binder", "Value observed"],
 "data": [
  ["AAGGGTGGGTGTAAGTGTGGGTGGGTGCGTCTGCGGCTGGCTCGAGGC (structured_DNA) [CEB G4 ss (CEB25)]", 7.19]
]}
